biological target: Protease (Human immunodeficiency virus 1)
Sequence (Q9YQ12 whole entry): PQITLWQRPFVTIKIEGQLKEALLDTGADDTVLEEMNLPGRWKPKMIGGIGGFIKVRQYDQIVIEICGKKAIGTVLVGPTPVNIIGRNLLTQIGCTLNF
Peptide text beside a SMILES is read from it. * marks the point of attachment. X1 = Oc1cccc(N*)c1
# pIC50 per record follows
Please express pIC50 as -log10 of the molar concentration.

{"molecule": "CC[C@H](C)[C@H](NC(=O)[C@@H](N)CO)C(=O)N[C@@H](C)C(=O)N[C@@H](CCC(=O)O)C(=O)Nc1cccc(O)c1 (H-SIAE-X1)", "pIC50": 5.00}
{"molecule": "CC[C@H](C)[C@H](NC(=O)[C@@H](N)CO)C(=O)N[C@@H](C)C(=O)N[C@@H](CCC(=O)O)C(=O)NC12NC(=O)C3(O)C4C5CC(C6C5C3C61)C42 (mixture of isomers)", "pIC50": 7.11}

Fill in pIC50 for CC[C@H](C)[C@H](NC(=O)[C@@H](N)CO)C(=O)N[C@@H](C)C(=O)N[C@]12NC(=O)[C@@]3(O)C4C5CC(C6C5C3C61)C42 (stereo partly drawn) tested with Protease (Human immunodeficiency virus 1). 6.30
